- system: T1, SARS-CoV-2 Receptor Binding Domain (RBD) protein (SARS-CoV-2, UniProt P0DTC2 319-541)
- T1 construct: also called Sars-Cov-2 (COV2)
- protocol-details: SPR (Carterra LSA)
pKd: −log10 of the molar value.
I'd appreciate it if you could supply pKd values for the items below.

Worked cases, answers included:
Task: Write down pKd measured for item COVID19_P14_F08 (scFv, V domains shown) VH: QVQLVQSGAEVKKPGSSVKVSCKASGYTFTAFYIHWVRQAPGQGLEWMGGIIPISGTANYAQKFQGRATITADESTSTAYMELSSLRSEDTAVYYCAREVVMGGMDVWGQGTLVTVSS VL: SSYVLTQPPSVSVAPGKTARITCGGNNIGSKSVHWYQQKPGQAPVLVIYYDSDRPSGIPERFSGSNSGNTATLTISRVEAGDEADYYCQVWDSTSDYVFGGGTKLTVLA
Output: > 7.30

Task: Supply pKd value. Item: COVID19_P02_C07 (scFv, V domains shown) VH: QVQLVQSGAEVKKPGSSVKVSCKASGYTFSSYYIHWVRQAPGQGLEWMGGIIPIFGEAEYAHKFQGRVTITADESTSTAYMELSSLRSEDTAVYYCAMETVMGGMDVWGQGTLVTVSS VL: SSYVLTQPPSVSVAPGKTARITCGGNNIGSKSVHWYQQKPGQAPVLVIYYDSDRPSGIPERFSGSNSGNTATLTISRVEAGDEADYYCQVWDSSSDYVFGGGTKLTVLA
Output: > 7.30

Note: attention shifts to another entry.
Task: Determine from records and report pKd for COVID19_P01_C09 (scFv, V domains shown) VH: QVQLVQSGAEVKKPGSSVKVSCKASGYTFTSFDIHWVRQAPGQGLEWMGGIIPIFGTANYAQKFQGRVTITADESTSTAYMELSSLRSEDTAVYYCAYETVMGGMDVWGQGTLVTVSS VL: SSYVLTQPPSVSVAPGKTARITCGGNNIGSKSVHWYQQKPGQAPVLVIYYDSDRPSGIPERFSGSNSGNTATLTISRVEAGDEADYYCQVWDSSSYYVFGGGTKLTVLA
Output: > 7.30
